These measurements were taken from patent US7371777B2.

# assay_system: PPARα (Homo sapiens, UniProt Q07869)
# Construct: human PPAR167-468 (PPARa)
# Sequence (Q07869 167-468): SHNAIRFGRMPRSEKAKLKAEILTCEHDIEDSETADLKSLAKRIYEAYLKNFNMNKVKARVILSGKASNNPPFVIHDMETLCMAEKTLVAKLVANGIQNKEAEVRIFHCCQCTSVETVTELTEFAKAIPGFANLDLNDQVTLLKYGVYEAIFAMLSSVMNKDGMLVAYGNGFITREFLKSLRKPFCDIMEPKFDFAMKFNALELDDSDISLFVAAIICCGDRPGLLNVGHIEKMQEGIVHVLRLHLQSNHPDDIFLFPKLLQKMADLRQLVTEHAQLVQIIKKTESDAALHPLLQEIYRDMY
# assay_procedure: Determination of transcriptional activity (GAL4-PPAR LBD chimera, PLAP reporter, CV-1 cells)
# test_conditions: GAL4-human PPARα LBD (167-468) chimera, PLAP activity 24 hours after addition of compound
measurement_type: EC50 (µM)

Examples with their reported EC50 follow.
molecule: COc1ccc(CC2(C(=O)O)CCCO2)cc1CNC(=O)c1ccc(C2CCCCC2)cc1Cl (stereo not drawn) [Ex. 6]
assay_system: PPARα (Homo sapiens, UniProt Q07869)
EC50 / µM: 0.011
//
molecule: COc1ccc(CC2(C(=O)O)CCCO2)cc1CNC(=O)c1ccc(OC2CCCC2)cc1Cl (stereo not drawn) [Ex. 5]
assay_system: PPARα (Homo sapiens, UniProt Q07869)
EC50 / µM: 0.015

P. CCCOc1ccc(C(=O)NCc2cc(CC3(C(=O)O)CCCO3)ccc2OCC)c(Cl)c1 (stereo not drawn) [Ex. 73]
Q. CCCOc1ccc(C(=O)NCc2cc(CC3(C(=O)O)C=CCO3)ccc2OC)c(Cl)c1 (stereo not drawn) [Ex. 49]
R. CCOc1ccc(C(=O)NCc2cc(CC3(C(=O)O)CCCO3)ccc2OCC)c(Cl)c1 (stereo not drawn) [Ex. 72]
S. CCCOc1ccc(C(=O)NCc2cc(CC3(C(=O)O)CCCO3)ccc2OC)c(Cl)c1 (stereo not drawn) [Ex. 1]
Ranking field: EC50; order: falling. Use the labels to give the ranking in the order requested.
R, Q, S, P
(R: 0.092 µM, Q: 0.054 µM, S: 0.028 µM, P: 0.013 µM)
